target: FLT1 (human) (UniProt P17948); experiment: radiometric filter-binding kinase assay, Kinase HotSpot; conditions: compound 0.5 µM; ATP 10 µM
Sequence (P17948 whole entry, looked up): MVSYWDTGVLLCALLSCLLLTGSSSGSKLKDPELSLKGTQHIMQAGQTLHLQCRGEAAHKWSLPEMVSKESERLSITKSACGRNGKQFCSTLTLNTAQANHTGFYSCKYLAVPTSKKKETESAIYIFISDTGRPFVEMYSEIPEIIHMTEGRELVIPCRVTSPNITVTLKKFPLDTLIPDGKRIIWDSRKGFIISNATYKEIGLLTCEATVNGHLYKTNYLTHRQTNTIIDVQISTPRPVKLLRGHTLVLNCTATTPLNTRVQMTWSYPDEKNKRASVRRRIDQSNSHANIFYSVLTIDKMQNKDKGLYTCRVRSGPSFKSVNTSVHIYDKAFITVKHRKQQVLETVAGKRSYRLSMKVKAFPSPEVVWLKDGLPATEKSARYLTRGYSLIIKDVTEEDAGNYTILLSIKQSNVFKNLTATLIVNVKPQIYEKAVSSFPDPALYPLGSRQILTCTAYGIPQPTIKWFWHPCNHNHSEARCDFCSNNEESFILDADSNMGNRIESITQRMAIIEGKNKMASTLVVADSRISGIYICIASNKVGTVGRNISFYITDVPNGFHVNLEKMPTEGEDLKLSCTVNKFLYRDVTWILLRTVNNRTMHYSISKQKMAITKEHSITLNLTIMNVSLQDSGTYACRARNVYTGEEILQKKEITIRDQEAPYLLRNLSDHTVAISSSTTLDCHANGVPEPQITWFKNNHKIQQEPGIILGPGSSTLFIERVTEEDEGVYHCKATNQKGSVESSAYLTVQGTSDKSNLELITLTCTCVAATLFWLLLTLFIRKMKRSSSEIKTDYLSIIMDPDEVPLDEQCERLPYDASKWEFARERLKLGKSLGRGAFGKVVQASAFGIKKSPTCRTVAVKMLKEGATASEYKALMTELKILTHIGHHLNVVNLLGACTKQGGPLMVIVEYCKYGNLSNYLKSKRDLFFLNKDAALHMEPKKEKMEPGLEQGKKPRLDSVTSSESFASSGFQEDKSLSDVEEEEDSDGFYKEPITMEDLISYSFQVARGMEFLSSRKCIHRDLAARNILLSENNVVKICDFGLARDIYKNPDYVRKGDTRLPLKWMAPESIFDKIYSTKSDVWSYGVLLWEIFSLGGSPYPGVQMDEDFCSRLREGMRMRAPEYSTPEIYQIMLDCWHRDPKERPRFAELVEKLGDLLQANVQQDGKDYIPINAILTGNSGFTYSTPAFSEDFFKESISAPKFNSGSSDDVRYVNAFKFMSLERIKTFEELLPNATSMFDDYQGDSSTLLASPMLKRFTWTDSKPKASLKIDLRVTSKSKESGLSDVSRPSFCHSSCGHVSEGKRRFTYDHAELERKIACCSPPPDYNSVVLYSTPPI
Below, each of the molecules is paired with its reported residual activity value.
Numeric answer only, unit % assumed.

Below are worked cases with known answers.
O=C1C(Cl)=C(N2C(=O)CCC2=O)C(=O)c2ccccc21 | 87.8
N#C/C(=C\c1ccc(O)c(O)c1)C(=O)NCc1ccccc1 | 88
CN(C)CCCn1cc(C2=C(c3c[nH]c4ccccc34)C(=O)NC2=O)c2ccccc21 | 78.1

# context switch: different molecule, same residual activity
Give residual activity only, for `O=C1Nc2ccc(Br)cc2/C1=C\c1cc2c([nH]1)CCCC2` , using FLT1 (human) (UniProt P17948) data.
73.4
